- System: U-251
- Protocol summary: NCI tumour cell line growth inhibition, 48 h
Activity calls are given as the source filed them. Cut-off read from the data, not from the text of the source: active = GI50 up to about 1.1 µM and inactive = higher.
Labels: active, inactive

Compound	Class label
CC1(C)OCC2OC3(c4nc(C#N)c(N)o4)OC(C)(C)OC3C2O1 (stereo not drawn)	inactive
CCCC(=O)[O-].[Na+] [SODIUM BUTYRATE]	inactive
COc1cc(/C=C2/C(=O)N(C(=O)c3ccccc3O)N=C2C)cc(OC)c1OC	inactive
Cc1cnc2c(c1)C(=O)N(c1ccc([N+](=O)[O-])cc1)S2(=O)=O	inactive
COCOCC/C=C/C=O	inactive
COc1ccc(/C=N/n2c(Cc3ccccc3)n[nH]c2=O)c(OC)c1	inactive
CCCCC[C@@H]1OCO[C@@]2(C)/C=C(C)\C=C/C(=O)O[C@H]([C@@H](C)[C@@H](O)[C@H](C)[C@@]3(O)C[C@@H](O[C@H]4C[C@@H](O)[C@H](O)[C@@H](C)O4)[C@H](C)[C@@H](C)O3)[C@@H](OC)/C=C\C=C(\C)C[C@@H]1[C@@H]2O (stereo in doubt)	active
O=C(CCCN1CCC2(CC1)NC(=O)c1ccccc1O2)c1ccc(F)cc1	inactive
Cc1cccc2c(N)c3cccc(C(=O)NCC[N+](C)(C)Cc4ccc([N+](=O)[O-])s4)c3nc12	inactive
CCOC(=O)/C(=C\NCc1ccc2c(c1)OCO2)c1nc2ccccc2[nH]1	inactive
CC1(C)C2CCC(=O)C1C(OCc1ccccc1)C2 (stereo not drawn)	inactive
NC1(C(=O)O)CCC(C(=O)O)CC1 (stereo not drawn)	inactive
Cn1cc(NC(=O)c2cc(NC(=O)CCCCCCCC(=O)Nc3cc(C(=O)Nc4cc(C(=O)NCCC(=N)N)n(C)c4)n(C)c3)cn2C)cc1C(=O)NCCC(=N)N	inactive
COc1ccc(OC(C(=O)O)c2ccccc2)c2c1CCCC2=O (stereo not drawn)	inactive
O=C(O)CN(CC(=O)O)C1CCCCC1N(CC(=O)O)CC(=O)NCCN=C=S (stereo not drawn)	inactive
CC#N.O[C@@H]1CCCC[C@H]1O.O[C@@H]1CCCC[C@H]1O.[TeH2]	inactive
C=C(C)C(=O)OC1C/C(CO)=C\C(O)C/C(C)=C/C2OC(=O)C(=C)C21 (stereo not drawn)	inactive
Nc1nc2c(c(-c3cccc(Cl)c3)n1)COC/C2=C\c1cccc(Cl)c1	inactive
CC(=O)OC1CCC2C3CCc4c(C)ccc(OS(=O)(=O)c5ccccc5)c4C3CCC12C (stereo not drawn)	inactive
CCCC(=O)OCC1(CO)C/C(=C/CC(C(C)C)C(C)C)C(=O)O1 (stereo not drawn)	inactive
C/C(=N\Nc1nc2ccccc2o1)c1ccc2ccccc2n1	inactive
Cn1c(-c2ccccc2)c/c(=N\NS(C)(=O)=O)c2cc(S(=O)(=O)O)ccc21	inactive
O=C(O)CN(CC(=O)O)C1CCCCC1N1CC(=O)OC(=O)C1 (stereo not drawn)	inactive
CC[N+]1(C)CCC(O)(/C=C/c2ccc(Cl)cc2)C(C(=O)/C=C/c2ccc(Cl)cc2)C1 (stereo not drawn)	inactive
COC(=O)C1c2cc3c(c(O)c2CCC1(C)O)C(=O)c1c(O)cc2c(c1C3=O)OC1OC2(C)C(O)C(N(C)C)C1O (stereo not drawn)	active
C[n+]1cn(C2=C([N-]S(=O)(=O)c3ccccc3)C(=O)c3ccccc3C2=O)c2ccccc21	inactive
O=C1CC(c2ccc(Cl)cc2)C2(C(=O)NC(=S)NC2=O)C(c2ccc(Cl)cc2)C1 (stereo not drawn)	inactive
NS(=O)(=O)c1ccc(NC(=O)c2cccc3cc4ccccc4nc23)cc1	inactive
Cc1ccc2nc(/C(=C/c3ccc(/C=C(\NC(=O)c4ccccc4)c4nc5ccc(C)cc5[nH]4)c(C)c3)NC(=O)c3ccccc3)[nH]c2c1	inactive
Clc1c(Cl)c(Cl)c2nn(C3CCCO3)nc2c1Cl (stereo not drawn)	inactive
CCOC(=O)N1C/C(=C\c2ccc(N(C)C)cc2)C(=O)/C(=C/c2ccc(N(C)C)cc2)C1	inactive
COc1cc(/C=C/C=C2\CC(C)C/C(=C\C=C\c3ccc(O)c(OC)c3)C2=O)ccc1O (stereo not drawn)	inactive
Cn1c(=O)c2c(ncn2CCNC(CO)C(O)c2ccc([N+](=O)[O-])cc2)n(C)c1=O (stereo not drawn)	inactive
